src = patent US20240018502A1

target: plasma purified human complement protein C3 (human) (UniProt P01024); assay: cell-based or functional assay
Sequence (P01024 23-667, chain 1 of 2): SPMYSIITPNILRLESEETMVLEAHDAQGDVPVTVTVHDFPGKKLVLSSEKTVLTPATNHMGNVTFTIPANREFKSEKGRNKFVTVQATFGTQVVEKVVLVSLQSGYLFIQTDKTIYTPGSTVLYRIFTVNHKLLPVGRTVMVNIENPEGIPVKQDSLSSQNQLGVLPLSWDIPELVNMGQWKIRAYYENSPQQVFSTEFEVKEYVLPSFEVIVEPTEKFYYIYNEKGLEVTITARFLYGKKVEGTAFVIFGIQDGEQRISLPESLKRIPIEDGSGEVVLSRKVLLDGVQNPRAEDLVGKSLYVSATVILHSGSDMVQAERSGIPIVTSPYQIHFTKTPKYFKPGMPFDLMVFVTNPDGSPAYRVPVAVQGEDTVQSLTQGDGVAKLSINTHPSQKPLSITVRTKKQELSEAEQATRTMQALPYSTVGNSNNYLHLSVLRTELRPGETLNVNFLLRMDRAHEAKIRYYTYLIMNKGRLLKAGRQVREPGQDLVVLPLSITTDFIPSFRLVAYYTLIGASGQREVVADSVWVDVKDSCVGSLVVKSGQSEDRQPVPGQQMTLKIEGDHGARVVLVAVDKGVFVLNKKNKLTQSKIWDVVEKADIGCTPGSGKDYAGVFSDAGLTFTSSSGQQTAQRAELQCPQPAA
Sequence (P01024 672-1663, chain 2 of 2): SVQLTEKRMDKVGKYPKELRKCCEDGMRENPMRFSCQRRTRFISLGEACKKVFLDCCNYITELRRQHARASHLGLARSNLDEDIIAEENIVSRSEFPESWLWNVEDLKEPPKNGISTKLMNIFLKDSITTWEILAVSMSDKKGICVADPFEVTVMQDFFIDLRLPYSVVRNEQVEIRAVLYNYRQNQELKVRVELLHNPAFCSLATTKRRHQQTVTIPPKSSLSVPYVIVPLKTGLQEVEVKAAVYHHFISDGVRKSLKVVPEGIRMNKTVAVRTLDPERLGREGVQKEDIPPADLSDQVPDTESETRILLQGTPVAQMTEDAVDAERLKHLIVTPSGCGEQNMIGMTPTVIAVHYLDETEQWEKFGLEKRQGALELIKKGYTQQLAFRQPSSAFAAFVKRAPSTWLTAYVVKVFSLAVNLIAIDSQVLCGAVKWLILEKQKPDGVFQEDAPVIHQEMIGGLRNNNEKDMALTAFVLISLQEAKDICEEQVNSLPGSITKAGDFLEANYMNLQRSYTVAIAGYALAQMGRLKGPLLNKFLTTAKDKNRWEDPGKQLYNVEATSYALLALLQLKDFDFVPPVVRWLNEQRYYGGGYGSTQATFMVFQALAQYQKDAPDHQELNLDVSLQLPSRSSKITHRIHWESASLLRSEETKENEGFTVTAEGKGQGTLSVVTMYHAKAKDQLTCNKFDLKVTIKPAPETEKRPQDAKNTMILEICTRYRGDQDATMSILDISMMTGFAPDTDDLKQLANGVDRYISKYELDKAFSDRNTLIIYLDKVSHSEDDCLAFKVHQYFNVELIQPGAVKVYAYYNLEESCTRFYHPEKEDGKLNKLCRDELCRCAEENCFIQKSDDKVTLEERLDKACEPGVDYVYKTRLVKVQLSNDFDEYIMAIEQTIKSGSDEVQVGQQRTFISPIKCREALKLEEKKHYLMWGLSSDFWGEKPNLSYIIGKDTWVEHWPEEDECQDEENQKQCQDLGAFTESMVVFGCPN
observation-type: EC50 of hC3 cleavage (nM)
Give the number; nM is assumed, so skip it.

binder: MTSP-1 Q38R/I41E/ins97aE/F97T/T98G/F99L/C122S/G151N/Q175L/Q192T (enzyme) VVGGTDADEGEWPWQVSLHALGRGHECGASLISPNWLVSAAHCYIDDRGFRYSDPTQWTAFLGLHDQSQRSAPGVQERRLKRIISHPFFNDTEGLDYDIALLELEKPAEYSSMVRPISLPDASHVFPAGKAIWVTGWGHTQYGGTNALILQKGEIRVINQTTCENLLPQLITPRMMCVGFLSGGVDSCTGDSGGPLSSVEADGRIFQAGVVSWGDGCAQRNKPGVYTRLPLFRDWIKENTGV
unit-annotation: nM
EC50 of hC3 cleavage: 105
//
binder: MTSP-1 I41T/D60bY/F97T/ins97aE/T98G/F99L/C122S/Q175L/Q192G (enzyme) VVGGTDADEGEWPWQVSLHALGQGHTCGASLISPNWLVSAAHCYIDYRGFRYSDPTQWTAFLGLHDQSQRSAPGVQERRLKRIISHPFFNDTEGLDYDIALLELEKPAEYSSMVRPISLPDASHVFPAGKAIWVTGWGHTQYGGTGALILQKGEIRVINQTTCENLLPQLITPRMMCVGFLSGGVDSCGGDSGGPLSSVEADGRIFQAGVVSWGDGCAQRNKPGVYTRLPLFRDWIKENTGV
unit-annotation: nM
EC50 of hC3 cleavage: 3.88

# evaluate next
Query :: Please report the measured EC50 of hC3 cleavage for MTSP-1 H40R/I41H/F99L/C122S/G151E/Q192G (enzyme) VVGGTDADEGEWPWQVSLHALGQGRHCGASLISPNWLVSAAHCYIDDRGFRYSDPTQWTAFLGLHDQSQRSAPGVQERRLKRIISHPFFNDFTLDYDIALLELEKPAEYSSMVRPISLPDASHVFPAGKAIWVTGWGHTQYGGTEALILQKGEIRVINQTTCENLLPQQITPRMMCVGFLSGGVDSCGGDSGGPLSSVEADGRIFQAGVVSWGDGCAQRNKPGVYTRLPLFRDWIKENTGV
Result :: 829
